MEASUREMENT_NOTES: in vivo
RUN_PARAMETERS: dog
MEASUREMENT_KIND: Vd (L/kg)

LINE_NOTATION | UNIT_TAG | Vd
Cc1cc(C(=O)Nc2ccc(-c3ccccc3S(N)(=O)=O)cc2)n(-c2ccc3onc(N)c3c2)n1 | L/kg | 0.7

A: COc1ccc(-n2nc(C)cc2C(=O)Nc2ccc(-c3ccccc3S(N)(=O)=O)cc2)cc1
B: Cc1cc(C(=O)Nc2ccc(-c3ccccc3S(N)(=O)=O)cc2)n(-c2ccc3ccnc(N)c3c2)n1
Pick the one with the larger Vd: A vs B Please indicate the selected item by its label.
B

* * *

MEASUREMENT_NOTES: in vivo
RUN_PARAMETERS: dog, po
MEASUREMENT_KIND: half-life (h)

LINE_NOTATION | UNIT_TAG | half-life
Cc1cc(C(=O)Nc2ccc(-c3ccccc3S(N)(=O)=O)cc2)n(-c2ccc3onc(N)c3c2)n1 | h | 3.2
Cc1cc(C(=O)Nc2ccc(-c3ccccc3S(N)(=O)=O)cc2)n(-c2cccc(C(N)=O)c2)n1 | h | 3.9
Cc1cc(C(=O)Nc2ccc(-c3ccccc3S(N)(=O)=O)cc2)n(-c2ccc3ccnc(N)c3c2)n1 | h | 4.4
COc1ccc(-n2nc(C)cc2C(=O)Nc2ccc(-c3ccccc3S(N)(=O)=O)cc2)cc1 | h | 4.5

* * *

TARGET: Coagulation factor X (Homo sapiens)
Sequence (P00742 41-179 limits assumed): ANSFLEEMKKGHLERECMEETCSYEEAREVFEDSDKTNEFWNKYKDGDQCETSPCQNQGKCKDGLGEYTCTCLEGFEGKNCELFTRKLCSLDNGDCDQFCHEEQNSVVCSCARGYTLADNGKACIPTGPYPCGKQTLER
Sequence (P00742 235-488 limits assumed): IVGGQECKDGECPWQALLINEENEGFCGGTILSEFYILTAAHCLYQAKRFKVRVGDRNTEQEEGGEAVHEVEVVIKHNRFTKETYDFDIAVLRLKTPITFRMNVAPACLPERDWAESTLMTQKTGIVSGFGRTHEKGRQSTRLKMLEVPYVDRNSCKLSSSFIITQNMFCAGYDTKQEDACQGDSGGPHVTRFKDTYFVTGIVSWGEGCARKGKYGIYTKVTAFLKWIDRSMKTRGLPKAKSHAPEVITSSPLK
MEASUREMENT_KIND: Ki (µM)

1: Cc1cc(C(=O)Nc2ccc(-c3ccccc3S(N)(=O)=O)cc2)n(-c2cccc(S(N)(=O)=O)c2)n1
2: Cc1cc(C(=O)Nc2ccc(-c3ccccc3S(N)(=O)=O)cc2)n(-c2cccc(C#N)c2)n1
Pick the one with the larger Ki: 1 vs 2 Please indicate the selected item by its label.
1
(1: 5 µM, 2: 0.31 µM)

P: Cc1cc(C(=O)Nc2ccc(-c3ccccc3S(N)(=O)=O)cc2)n(-c2ccc3c(N)[nH]nc3c2)n1
Q: Cc1cc(C(=O)Nc2ccc(-c3ccccc3S(N)(=O)=O)cc2)n(-c2ccccc2N)n1
Pick the one with the larger Ki: P vs Q Please indicate the selected item by its label.
P
(P: 2.8 µM, Q: 0.6 µM)

* * *

Ki, Coagulation factor X (Homo sapiens, UniProt P00742): measured values
MEASUREMENT_KIND: Ki (nM)

a: Cc1cc(C(=O)Nc2ccc(-c3ccccc3S(N)(=O)=O)cc2)n(-c2ccc3ccncc3c2)n1
b: Cc1cc(C(=O)Nc2ccc(-c3ccccc3S(N)(=O)=O)cc2)n(-c2cccc(C(=N)NO)c2)n1
c: Cc1cc(C(=O)Nc2ccc(-c3ccccc3S(N)(=O)=O)cc2)n(-c2cccc(S(C)=N)c2)n1 (centres undefined)
d: Cc1cc(C(=O)Nc2ccc(-c3ccccc3S(N)(=O)=O)cc2)n(-c2cccc(B(O)O)c2)n1
Hey, quick one: sort these by Ki, low to high? Please respond by ranking the labels in the order requested.
b, d, a, c

* * *

MEASUREMENT_NOTES: physchem
RUN_PARAMETERS: octanol/water
MEASUREMENT_KIND: logP

LINE_NOTATION | logP
Cc1cc(C(=O)Nc2ccc(-c3ccccc3S(N)(=O)=O)cc2)n(-c2ccc3ccnc(N)c3c2)n1 | 2.6
COc1ccc(-n2nc(C)cc2C(=O)Nc2ccc(-c3ccccc3S(N)(=O)=O)cc2)cc1 | 2.9
Cc1cc(C(=O)Nc2ccc(-c3ccccc3S(N)(=O)=O)cc2)n(-c2cccc(C(N)=O)c2)n1 | 2.1

Value source: ChEMBL document CHEMBL1145122
